Data origin, for the record: patent US11040031B2

# Tested on: Secretion of IL6 by TMD8 ABC-DLBCL cells
# TEST SUMMARY: Human IL6 Mesoscale assay (TMD-8)
# Assay type: cell-based
# ASSAY SETUP: TMD8 cells, 24 h incubation, supernatant, MSD V-Plex, read-out: Human IL6 Mesoscale assay (TMD-8)
MEASURED ENDPOINT: IC50 (nM)

Below: 6 molecules and their reported IC50.
{"MOLECULE": "N#Cc1cc(NC(=O)c2cnn(-c3cccc4c3OCCO4)c2C(F)(F)F)cnc1-n1nccn1 [Cpd 49]", "ENDPOINT UNIT": "nM", "IC50": 145}
{"MOLECULE": "Cc1nccc(-n2ncc(C(=O)Nc3cnc(-n4nccn4)c(Cl)c3)c2C(F)(F)F)c1Cl [Cpd 69]", "ENDPOINT UNIT": "nM", "IC50": 2290}
{"MOLECULE": "COc1nccc(-n2ncc(C(=O)Nc3cnc(-n4nccn4)c(C#N)c3)c2C(F)(F)F)c1Cl [Cpd 32]", "ENDPOINT UNIT": "nM", "IC50": 1120}
{"MOLECULE": "N#Cc1cc(NC(=O)c2cnn(-c3ncccc3Cl)c2C(F)(F)F)cnc1-n1nccn1 [Cpd 44]", "ENDPOINT UNIT": "nM", "IC50": 490}
{"MOLECULE": "CN1CCOc2c1cccc2-n1ncc(C(=O)Nc2cnc(-n3nccn3)c(C#N)c2)c1C(F)(F)F [Cpd 132]", "ENDPOINT UNIT": "nM", "IC50": 550}
{"MOLECULE": "Cc1nccc(-n2ncc(C(=O)Nc3cnc(-n4nccn4)c(C#N)c3)c2C(F)(F)F)c1Cl [Cpd 43]", "ENDPOINT UNIT": "nM", "IC50": 4790}

P = N#Cc1cccc(-n2ncc(C(=O)Nc3cnc(-n4nccn4)c(Cl)c3)c2C(F)(F)F)c1 [Cpd 21]
Q = COc1ncccc1-n1ncc(C(=O)Nc2cnc(-n3nccn3)c(Cl)c2)c1C(F)(F)F [Cpd 14]
Query: Could you tell me which of these two has the smaller IC50 figure? First: P Second: Q Respond using the label that marks the chosen record.
Reply: Q
